Assay: solubility of Freeform Form A in solvents
Type: physicochemical
Details: 2-MeTHF, organic solvent or mixture
Outcome measure: solubility

Which solubility reading was recorded for the compound COc1ccc([C@@]23CCC(=O)C[C@@H]2N(C)CC3)cc1OC [Freeform Form A] ?
> 40 mg/mL

* * *

Experiment: solubility of Freeform Form A in solvents
Assay type: physicochemical
Settings: DCM, organic solvent or mixture
Outcome measure: solubility

Which solubility reading was recorded for the molecule COc1ccc([C@@]23CCC(=O)C[C@@H]2N(C)CC3)cc1OC [Freeform Form A] ?
> 42 mg/mL

* * *

Assay: kinetic solubility in H2O and bio-relevant media (SGF, FaSSIF, FeSSIF) at 37° C.
Format: physicochemical
Conditions: thermodynamic from solid; FaSSIF, 37° C., at 1, 2, 4 and 24 hrs
Outcome measure: solubility kinetic

Which solubility kinetic reading was recorded for the compound COc1ccc([C@@]23CCC(=O)C[C@@H]2N(C)CC3)cc1OC [Freeform Form A] ?
> 8300 µg/mL

* * *

Assay: solubility of Freeform Form A in solvents
Type: physicochemical
Details: CPME, organic solvent or mixture
From the text: Freeform Form A was a gum material. The material had the solubility shown below:
Outcome measure: solubility

Which solubility reading was recorded for the compound COc1ccc([C@@]23CCC(=O)C[C@@H]2N(C)CC3)cc1OC [Freeform Form A] ?
> 40 mg/mL

* * *

Experiment: solubility of Freeform Form A in solvents
Format: physicochemical
Conditions: THF, organic solvent or mixture
Outcome measure: solubility

Which solubility reading was recorded for the compound COc1ccc([C@@]23CCC(=O)C[C@@H]2N(C)CC3)cc1OC [Freeform Form A] ?
> 44 mg/mL

* * *

Assay: kinetic solubility in H2O and bio-relevant media (SGF, FaSSIF, FeSSIF) at 37° C.
Format: physicochemical
Details: 37 °C, simulated gastric fluid, thermodynamic from solid; in SGF; read-out: observed solubility
Outcome measure: solubility

Which solubility reading was recorded for the molecule COc1ccc([C@@]23CCC(=O)C[C@@H]2N(C)CC3)cc1OC [Freeform Form A] ?
> 8300 µg/mL

* * *

Assay: solubility of Freeform Form A in solvents
Format: physicochemical
Settings: MeOH, organic solvent or mixture
Outcome measure: solubility

Which solubility reading was recorded for the molecule COc1ccc([C@@]23CCC(=O)C[C@@H]2N(C)CC3)cc1OC [Freeform Form A] ?
> 36 mg/mL

* * *

Assay: solubility of Freeform Form A in solvents
Format: physicochemical
Details: IPAc, organic solvent or mixture
Excerpt: Freeform Form A was a gum material. The material had the solubility shown below:
Outcome measure: solubility

Which solubility reading was recorded for the compound COc1ccc([C@@]23CCC(=O)C[C@@H]2N(C)CC3)cc1OC [Freeform Form A] ?
> 36 mg/mL

* * *

Test: solubility of Freeform Form A in solvents
Format: physicochemical
Settings: MIBK, organic solvent or mixture
Outcome measure: solubility

Which solubility reading was recorded for the molecule COc1ccc([C@@]23CCC(=O)C[C@@H]2N(C)CC3)cc1OC [Freeform Form A] ?
> 38 mg/mL

* * *

Experiment: solid state stability: storage at 25° C./60% RH and 40° C./75% RH for 1 week, XRPD and HPLC purity
Assay type: physicochemical
Conditions: 25° C./60% RH/open/1 week

{"columns": ["Compound", "form change by XRPD after storage"],
 "data": [
  ["COc1ccc([C@@]23CCC(=O)C[C@@H]2N(C)CC3)cc1OC.O=C(O)c1cc(O)ccc1O [Gentisate Form A]", "no form change"],
  ["COc1ccc(C23CCC(=O)CC2N(C)CC3)cc1OC.Cl (stereo not shown) [HCl Form A]", "no form change"],
  ["COc1ccc([C@@]23CCC(=O)C[C@@H]2N(C)CC3)cc1OC.O=S(=O)(O)c1ccccc1 [Besylate Form B]", "no form change"]
]}

* * *

Assay: kinetic solubility in H2O and bio-relevant media (SGF, FaSSIF, FeSSIF) at 37° C.
Assay type: physicochemical
Details: water, thermodynamic from solid; H2O, 37° C., at 1, 2, 4 and 24 hrs
Outcome measure: solubility kinetic

Which solubility kinetic reading was recorded for the compound COc1ccc([C@@]23CCC(=O)C[C@@H]2N(C)CC3)cc1OC [Freeform Form A] ?
> 8300 µg/mL

* * *

Assay: kinetic solubility in H2O and bio-relevant media (SGF, FaSSIF, FeSSIF) at 37° C.
Assay type: physicochemical
Settings: thermodynamic from solid; FeSSIF, 4 hrs, 37° C.; read-out: S: Solubility (mg/mL), calculated by freebase
Outcome measure: solubility at 4 h

Which solubility at 4 h reading was recorded for the compound COc1ccc([C@@]23CCC(=O)C[C@@H]2N(C)CC3)cc1OC [Freeform Form A] ?
> 9.1 mg/mL

* * *

Assay: kinetic solubility in H2O and bio-relevant media (SGF, FaSSIF, FeSSIF) at 37° C.
Type: physicochemical
Details: water, thermodynamic from solid; H2O, 24 hrs, 37° C.; read-out: S: Solubility (mg/mL), calculated by freebase
Outcome measure: solubility at 24 h

Which solubility at 24 h reading was recorded for the compound COc1ccc([C@@]23CCC(=O)C[C@@H]2N(C)CC3)cc1OC [Freeform Form A] ?
> 9.3 mg/mL

* * *

Test: kinetic solubility in H2O and bio-relevant media (SGF, FaSSIF, FeSSIF) at 37° C.
Assay type: physicochemical
Conditions: simulated gastric fluid, thermodynamic from solid; SGF, 24 hrs, 37° C.; read-out: S: Solubility (mg/mL), calculated by freebase
Outcome measure: solubility at 24 h

Which solubility at 24 h reading was recorded for the compound COc1ccc([C@@]23CCC(=O)C[C@@H]2N(C)CC3)cc1OC [Freeform Form A] ?
> 8.7 mg/mL

* * *

Experiment: solid state stability: storage at 25° C./60% RH and 40° C./75% RH for 1 week, XRPD and HPLC purity
Assay type: physicochemical
Conditions: 25° C./60% RH/open/1 week, HPLC purity
Outcome measure: Purity (area %)
Quick note: give the figure in area %, leave out the unit.

{"columns": ["Compound", "Outcome measure", "Assay result"],
 "data": [
  ["COc1ccc([C@@]23CCC(=O)C[C@@H]2N(C)CC3)cc1OC.O=C(O)c1cc(O)ccc1O [Gentisate Form A]", "Purity (area %)", 97.18],
  ["COc1ccc([C@@]23CCC(=O)C[C@@H]2N(C)CC3)cc1OC [Freeform Form A]", "Purity (area %)", 98.14]
]}

Which Purity (area %) reading was recorded for the compound COc1ccc([C@@]23CCC(=O)C[C@@H]2N(C)CC3)cc1OC.O=S(=O)(O)c1ccccc1 [Besylate Form B] ?
97.16

Which Purity (area %) reading was recorded for the compound COc1ccc(C23CCC(=O)CC2N(C)CC3)cc1OC.Cl (stereo not shown) [HCl Form A] ?
97.06

* * *

Test: solubility of Freeform Form A in solvents
Format: physicochemical
Conditions: MTBE, organic solvent or mixture
Outcome measure: solubility

Which solubility reading was recorded for the compound COc1ccc([C@@]23CCC(=O)C[C@@H]2N(C)CC3)cc1OC [Freeform Form A] ?
> 40 mg/mL

* * *

Assay: kinetic solubility in H2O and bio-relevant media (SGF, FaSSIF, FeSSIF) at 37° C.
Format: physicochemical
Settings: thermodynamic from solid; FaSSIF, 2 hrs, 37° C.; read-out: S: Solubility (mg/mL), calculated by freebase
Outcome measure: solubility at 2 h

Which solubility at 2 h reading was recorded for the compound COc1ccc([C@@]23CCC(=O)C[C@@H]2N(C)CC3)cc1OC [Freeform Form A] ?
> 8.7 mg/mL
